# system-under-test: HiBit-WIZ fusion protein (Homo sapiens, UniProt O95785+Q96SW2)
# Sequence (O95785 whole entry, the tested form may be a part): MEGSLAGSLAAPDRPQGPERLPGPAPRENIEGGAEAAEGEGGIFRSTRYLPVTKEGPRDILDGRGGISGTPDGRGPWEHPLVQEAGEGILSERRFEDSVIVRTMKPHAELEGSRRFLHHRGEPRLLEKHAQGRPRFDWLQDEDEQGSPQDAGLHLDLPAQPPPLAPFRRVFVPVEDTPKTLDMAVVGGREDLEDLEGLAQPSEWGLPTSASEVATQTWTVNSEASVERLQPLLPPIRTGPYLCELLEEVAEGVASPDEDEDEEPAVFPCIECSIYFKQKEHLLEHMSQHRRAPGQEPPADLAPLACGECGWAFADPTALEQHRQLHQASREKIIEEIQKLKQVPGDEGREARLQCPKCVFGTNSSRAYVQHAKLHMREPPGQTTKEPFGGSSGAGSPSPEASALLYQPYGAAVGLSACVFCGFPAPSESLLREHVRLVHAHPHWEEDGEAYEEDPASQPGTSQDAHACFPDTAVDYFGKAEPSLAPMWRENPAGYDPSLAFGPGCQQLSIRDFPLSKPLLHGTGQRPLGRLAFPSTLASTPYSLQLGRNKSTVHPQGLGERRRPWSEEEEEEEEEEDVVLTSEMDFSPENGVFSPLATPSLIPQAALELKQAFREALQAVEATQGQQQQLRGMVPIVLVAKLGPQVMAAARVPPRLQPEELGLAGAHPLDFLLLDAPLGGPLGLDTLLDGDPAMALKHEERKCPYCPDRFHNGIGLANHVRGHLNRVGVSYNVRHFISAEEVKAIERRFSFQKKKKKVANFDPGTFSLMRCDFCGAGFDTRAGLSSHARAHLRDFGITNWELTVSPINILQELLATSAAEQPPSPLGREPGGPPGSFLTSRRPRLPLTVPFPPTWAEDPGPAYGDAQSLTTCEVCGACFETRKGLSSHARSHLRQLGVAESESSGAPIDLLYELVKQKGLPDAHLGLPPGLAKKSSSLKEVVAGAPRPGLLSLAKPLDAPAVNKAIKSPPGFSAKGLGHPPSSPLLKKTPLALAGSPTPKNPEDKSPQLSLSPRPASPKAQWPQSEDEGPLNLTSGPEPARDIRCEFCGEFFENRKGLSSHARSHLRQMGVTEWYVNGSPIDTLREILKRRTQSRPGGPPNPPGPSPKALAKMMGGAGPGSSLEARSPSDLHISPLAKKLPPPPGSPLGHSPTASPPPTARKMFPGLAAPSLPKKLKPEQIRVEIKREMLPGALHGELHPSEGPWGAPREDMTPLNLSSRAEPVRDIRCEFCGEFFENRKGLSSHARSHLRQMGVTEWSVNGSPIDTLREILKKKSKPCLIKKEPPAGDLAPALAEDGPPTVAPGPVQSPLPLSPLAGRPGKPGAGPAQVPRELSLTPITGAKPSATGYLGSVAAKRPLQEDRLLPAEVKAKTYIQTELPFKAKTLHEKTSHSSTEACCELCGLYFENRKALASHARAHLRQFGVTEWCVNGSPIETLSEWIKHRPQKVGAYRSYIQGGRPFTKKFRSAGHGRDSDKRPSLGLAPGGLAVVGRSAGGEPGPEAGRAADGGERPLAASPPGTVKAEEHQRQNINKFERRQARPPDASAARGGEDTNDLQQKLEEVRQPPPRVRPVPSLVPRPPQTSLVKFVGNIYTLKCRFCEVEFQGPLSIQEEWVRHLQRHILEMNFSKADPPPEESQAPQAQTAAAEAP
# Sequence (Q96SW2 whole entry, the tested form may be a part): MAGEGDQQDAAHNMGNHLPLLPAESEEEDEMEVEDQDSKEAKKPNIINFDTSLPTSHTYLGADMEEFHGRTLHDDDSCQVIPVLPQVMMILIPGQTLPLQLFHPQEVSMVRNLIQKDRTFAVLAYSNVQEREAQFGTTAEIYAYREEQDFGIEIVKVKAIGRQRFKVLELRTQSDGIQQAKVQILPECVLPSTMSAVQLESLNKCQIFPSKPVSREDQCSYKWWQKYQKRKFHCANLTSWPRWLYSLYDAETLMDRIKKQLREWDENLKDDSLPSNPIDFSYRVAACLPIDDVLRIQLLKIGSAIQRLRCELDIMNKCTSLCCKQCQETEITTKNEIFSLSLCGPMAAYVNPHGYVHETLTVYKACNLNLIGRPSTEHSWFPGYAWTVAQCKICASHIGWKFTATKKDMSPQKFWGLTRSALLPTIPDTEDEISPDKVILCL
# Sequence (Q16531 whole entry partner, the tested form may be a part): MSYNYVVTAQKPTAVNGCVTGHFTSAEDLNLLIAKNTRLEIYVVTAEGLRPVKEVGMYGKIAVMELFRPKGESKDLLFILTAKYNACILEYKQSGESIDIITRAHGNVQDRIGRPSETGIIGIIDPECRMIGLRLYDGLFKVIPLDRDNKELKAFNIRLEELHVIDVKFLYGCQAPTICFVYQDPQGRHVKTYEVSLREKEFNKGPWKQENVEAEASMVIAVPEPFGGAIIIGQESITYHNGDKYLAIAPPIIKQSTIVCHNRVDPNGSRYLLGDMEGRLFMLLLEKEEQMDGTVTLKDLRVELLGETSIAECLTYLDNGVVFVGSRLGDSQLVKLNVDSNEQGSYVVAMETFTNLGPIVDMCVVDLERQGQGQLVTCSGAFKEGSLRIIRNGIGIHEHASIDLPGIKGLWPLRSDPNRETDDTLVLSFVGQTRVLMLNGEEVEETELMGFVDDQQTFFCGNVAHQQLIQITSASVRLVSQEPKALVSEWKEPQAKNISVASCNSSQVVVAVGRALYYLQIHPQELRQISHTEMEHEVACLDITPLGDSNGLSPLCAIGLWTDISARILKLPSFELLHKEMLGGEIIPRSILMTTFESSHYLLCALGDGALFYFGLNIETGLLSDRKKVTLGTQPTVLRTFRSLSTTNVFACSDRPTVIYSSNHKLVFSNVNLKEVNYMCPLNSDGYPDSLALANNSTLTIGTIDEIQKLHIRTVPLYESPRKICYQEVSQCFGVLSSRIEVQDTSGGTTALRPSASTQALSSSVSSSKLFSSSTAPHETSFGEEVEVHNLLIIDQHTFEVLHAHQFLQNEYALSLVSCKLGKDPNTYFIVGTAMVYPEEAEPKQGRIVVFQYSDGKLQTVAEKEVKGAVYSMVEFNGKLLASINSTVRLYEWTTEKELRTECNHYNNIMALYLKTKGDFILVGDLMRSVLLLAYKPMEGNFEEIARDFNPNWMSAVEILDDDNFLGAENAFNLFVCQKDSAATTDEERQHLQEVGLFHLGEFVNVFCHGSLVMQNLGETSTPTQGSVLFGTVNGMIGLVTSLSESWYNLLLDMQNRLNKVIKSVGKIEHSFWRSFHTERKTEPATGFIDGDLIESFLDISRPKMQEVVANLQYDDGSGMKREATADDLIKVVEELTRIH
# assay-procedure: Quantification of WIZ protein levels in HiBit tag fusion protein assay (WIZ HiBit assay in 293T cells)
# Assay type: cell-based
# test-conditions: HEK-293T, DMSO-normalized, curve-fitted percentage of WIZ-HiBit remaining at 25 uM; 293T cells; read-out: WIZ Amax
Each entry below carries its reported remaining activity at up to 25 µM.
Reply with just the number (in %).

Below, each entry is followed by its recorded remaining activity at up to 25 µM result.
molecule | system-under-test | unit-text | value-observed
CN(C)c1ncc(CN2CCCC[C@@H]2COc2ccc3c(c2)CN(C2CCC(=O)NC2=O)C3=O)cn1 (stereo partly shown) [Compound I-50ar] | HiBit-WIZ fusion protein (Homo sapiens, UniProt O95785+Q96SW2) | % | 21.8
CC(C)CN1CCN(c2ccccc2CN2CCCC[C@@H]2COc2ccc3c(c2)CN(C2CCC(=O)NC2=O)C3=O)CC1 (stereo partly shown) | HiBit-WIZ fusion protein (Homo sapiens, UniProt O95785+Q96SW2) | % | 0.21
O=C1CCC(N2Cc3cc(OC[C@H]4CCCCN4Cc4ccc(F)cn4)ccc3C2=O)C(=O)N1 (stereo partly shown) | HiBit-WIZ fusion protein (Homo sapiens, UniProt O95785+Q96SW2) | % | 10.5
O=C1CCC(N2Cc3cc(OC[C@@H]4CCCCN4C(=O)C=C4CCCCC4)ccc3C2=O)C(=O)N1 (stereo partly shown) [Compound I-72dm] | HiBit-WIZ fusion protein (Homo sapiens, UniProt O95785+Q96SW2) | % | 88.5
COc1cccc2c(C(=O)N3CCCC[C@H]3COc3ccc4c(c3)CN(C3CCC(=O)NC3=O)C4=O)c[nH]c12 (stereo partly shown) [Compound I-72cq] | HiBit-WIZ fusion protein (Homo sapiens, UniProt O95785+Q96SW2) | % | 68.9

Please give measured remaining activity at up to 25 µM of the following entry: O=C1CCC(N2Cc3cc(OC[C@@H]4CCCCN4Cc4cnn(C5CCCCC5)c4)ccc3C2=O)C(=O)N1 (stereo partly shown) [Compound I-50p]
6.8

Please give measured remaining activity at up to 25 µM of the following entry: O=C1CCC(N2Cc3cc(OC[C@@H]4CCCCN4C(=O)c4ccc(Cl)c(I)c4)ccc3C2=O)C(=O)N1 (stereo partly shown) [Compound I-72ad]
47.2

----------
# system-under-test: HiBit-WIZ fusion protein (Homo sapiens, UniProt O95785+Q96SW2)
# assay-procedure: Quantification of WIZ protein levels in HiBit tag fusion protein assay (WIZ HiBit assay in 293T cells)
# Assay type: cell-based
# test-conditions: HEK-293T, DMSO-normalized, curve-fitted percentage of WIZ-HiBit remaining at 25 uM; 293T cells; read-out: WIZ Amax
Each entry below carries its reported remaining activity at up to 25 µM.
Reply with just the number (in %).

Below, each entry is followed by its recorded remaining activity at up to 25 µM result.
compound | remaining activity at up to 25 µM (%)
COc1ccc(CN2CCCC[C@@H]2COc2ccc3c(c2)CN(C2CCC(=O)NC2=O)C3=O)cc1C#N (stereo partly shown) [Compound I-196] | 21.2
CC(C)(C)OC(=O)NC1(CN2CCCC[C@H]2COc2ccc3c(c2)CN(C2CCC(=O)NC2=O)C3=O)CCCC1 (stereo partly shown) [Compound I-50aq] | 84.6
COc1ccc(-c2cc(C(=O)N3CCCC[C@H]3COc3ccc4c(c3)CN(C3CCC(=O)NC3=O)C4=O)[nH]n2)cc1 (stereo partly shown) [Compound I-72ai] | 58.4

Quote HiBit-WIZ fusion protein (Homo sapiens, UniProt O95785+Q96SW2) remaining activity at up to 25 µM for entry Cc1noc(C)c1CN1CCCC[C@@H]1COc1ccc2c(c1)CN(C1CCC(=O)NC1=O)C2=O (stereo partly shown) [Compound I-50el] .
69.7
